Give measured MIC for each item. Keep answers brief.
System: Mycobacterium smegmatis ATCC 19420
Protocol description: Broth microdilution MIC, M. smegmatis
Type: cell-based
Condition notes: Mycolicibacterium smegmatis, ATCC19420, M. smegmatis ATCC 19420; read-out: MIC Mycobacterium smegmatis ATCC 19420
One number for each entry, in µg/mL.

Worked examples, 4 compounds total:
compound="COc1ccccc1C(=O)NC(Cc1ccccc1)C(=O)Nc1ccccc1C (centres unmarked)" system_under_test="Mycobacterium smegmatis ATCC 19420" measure_name=MIC unit_of_measure=µg/mL quantitative_result=6.25
compound="Cc1cccc(C(=O)NC(Cc2ccccc2)C(=O)Nc2ccccc2C)c1 (centres unmarked)" system_under_test="Mycobacterium smegmatis ATCC 19420" measure_name=MIC unit_of_measure=µg/mL quantitative_result=1.56
compound="Cc1ccc(F)cc1NC(=O)C(Cc1ccccc1)NC(=O)c1ccccc1C (centres unmarked)" system_under_test="Mycobacterium smegmatis ATCC 19420" measure_name=MIC unit_of_measure=µg/mL quantitative_result=0.195
compound="Cc1ccccc1NC(=O)C(Cc1ccc(O)cc1)NC(=O)c1ccccc1C (centres unmarked)" system_under_test="Mycobacterium smegmatis ATCC 19420" measure_name=MIC unit_of_measure=µg/mL quantitative_result=1.56

Shift focus to the following entry.
// query What measured MIC goes with Cc1c(NC(=O)C(Cc2ccccc2)NC(=O)c2ccccc2)cccc1N1CCCC1 (centres unmarked) ?
// result 6.25

====

Give measured MIC for each item. Keep answers brief.
Test system: Mycobacterium smegmatis ATCC 19420
Protocol description: Broth microdilution MIC, M. smegmatis
Format: cell-based
Condition notes: Mycolicibacterium smegmatis, ATCC19420, M. smegmatis ATCC 19420; read-out: MIC Mycobacterium smegmatis ATCC 19420
Numbers only, in µg/mL.

Worked examples, 3 molecules total:
molecule="COc1cccc(NC(=O)C(Cc2ccccc2)NC(=O)c2ccccc2F)c1C (stereo not drawn)" unit_of_measure=µg/mL quantitative_result=0.78
molecule="Cc1ccc(Cl)cc1NC(=O)[C@@H](Cc1ccccc1)NC(=O)c1ccccc1F [IX-55a]" unit_of_measure=µg/mL quantitative_result=0.073
molecule="Cc1ccccc1C(=O)NC(Cc1ccccc1)C(=O)Nc1cc(Cl)ccc1N1CCNCC1 (stereo not drawn)" unit_of_measure=µg/mL quantitative_result=0.39

Your task in this section: give MIC for each listed record.
1. O=C(NC(Cc1ccc(O)cc1)C(=O)Nc1ccccc1N1CCOCC1)c1ccccc1F (stereo not drawn)
2. O=C(NC(Cc1ccccc1)C(=O)Nc1cccc2c1OCCO2)c1cccs1 (stereo not drawn)
3. COc1ccc(F)cc1NC(=O)C(Cc1ccc(O)cc1)NC(=O)c1ccccc1F (stereo not drawn)
4. Cc1ccc(Cl)cc1NC(=O)C(Cc1ccccc1)NC(=O)c1ccccc1 (stereo not drawn)
5. O=C(NC(Cc1ccccc1)C(=O)Nc1ccccc1-n1cnnn1)c1ccccc1 (stereo not drawn)
6. CCCOc1ccccc1NC(=O)C(Cc1ccccc1)NC(=O)c1ccccc1 (stereo not drawn)

// result
0.195
0.195
0.39
0.195
6.25
0.78

====

Test system: Vero E6 ATCC CRL1586 cells
Protocol description: Mammalian-cell cytotoxicity, minimal cytotoxic concentration (CellTiter96)
Type: cell-based
Measure name: MCC mammalian cells Vero E6 ATCC CRL1586 (µg/mL)
Numbers only, in µg/mL.

compound="O=C(NC(Cc1ccccc1)C(=O)Nc1cc(F)ccc1N1CCNCC1)c1cccs1 (stereo not drawn) [IX-216]" quantitative_result=11
compound="COc1ccccc1C(=O)NC(Cc1ccccc1)C(=O)Nc1ccccc1C (stereo not drawn) [I-25]" quantitative_result=57
compound="Cc1ccccc1NC(=O)C(Cc1ccccc1)NC(=O)c1ccccc1F (stereo not drawn) [I-80]" quantitative_result=43
compound="CCCc1cccc(NC(=O)C(Cc2ccccc2)NC(=O)c2ccccc2)c1C (stereo not drawn) [I-127]" quantitative_result=100
compound="COc1ccc(F)cc1NC(=O)C(Cc1ccccc1)NC(=O)c1cccc2[nH]ccc12 (stereo not drawn) [IX-244]" quantitative_result=58

// query What measured MCC mammalian cells Vero E6 ATCC CRL1586 goes with O=C(NC(Cc1ccccc1)C(=O)Nc1ccccc1OC(F)F)c1cccs1 (stereo not drawn) [IX-100] ?
// result 42

====

System under test: Mycobacterium tuberculosis RNA polymerase (Mycobacterium tuberculosis, UniProt P9WGY7+P9WGY9)
Sequence (P9WGZ1 whole entry): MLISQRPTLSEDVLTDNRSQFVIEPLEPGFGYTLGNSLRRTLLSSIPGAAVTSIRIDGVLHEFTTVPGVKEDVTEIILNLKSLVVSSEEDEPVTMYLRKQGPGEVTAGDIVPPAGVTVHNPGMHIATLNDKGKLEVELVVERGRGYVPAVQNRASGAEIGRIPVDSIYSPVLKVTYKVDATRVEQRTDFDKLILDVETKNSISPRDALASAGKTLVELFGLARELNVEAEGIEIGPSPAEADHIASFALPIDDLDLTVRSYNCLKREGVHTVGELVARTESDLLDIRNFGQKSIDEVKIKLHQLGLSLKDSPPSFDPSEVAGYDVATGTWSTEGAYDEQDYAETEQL
Sequence (P9WGY5 whole entry, further chain): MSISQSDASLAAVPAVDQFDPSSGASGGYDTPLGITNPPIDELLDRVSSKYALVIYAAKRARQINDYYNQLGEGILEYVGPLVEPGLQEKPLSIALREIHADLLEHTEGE
Sequence (P9WGY9 whole entry): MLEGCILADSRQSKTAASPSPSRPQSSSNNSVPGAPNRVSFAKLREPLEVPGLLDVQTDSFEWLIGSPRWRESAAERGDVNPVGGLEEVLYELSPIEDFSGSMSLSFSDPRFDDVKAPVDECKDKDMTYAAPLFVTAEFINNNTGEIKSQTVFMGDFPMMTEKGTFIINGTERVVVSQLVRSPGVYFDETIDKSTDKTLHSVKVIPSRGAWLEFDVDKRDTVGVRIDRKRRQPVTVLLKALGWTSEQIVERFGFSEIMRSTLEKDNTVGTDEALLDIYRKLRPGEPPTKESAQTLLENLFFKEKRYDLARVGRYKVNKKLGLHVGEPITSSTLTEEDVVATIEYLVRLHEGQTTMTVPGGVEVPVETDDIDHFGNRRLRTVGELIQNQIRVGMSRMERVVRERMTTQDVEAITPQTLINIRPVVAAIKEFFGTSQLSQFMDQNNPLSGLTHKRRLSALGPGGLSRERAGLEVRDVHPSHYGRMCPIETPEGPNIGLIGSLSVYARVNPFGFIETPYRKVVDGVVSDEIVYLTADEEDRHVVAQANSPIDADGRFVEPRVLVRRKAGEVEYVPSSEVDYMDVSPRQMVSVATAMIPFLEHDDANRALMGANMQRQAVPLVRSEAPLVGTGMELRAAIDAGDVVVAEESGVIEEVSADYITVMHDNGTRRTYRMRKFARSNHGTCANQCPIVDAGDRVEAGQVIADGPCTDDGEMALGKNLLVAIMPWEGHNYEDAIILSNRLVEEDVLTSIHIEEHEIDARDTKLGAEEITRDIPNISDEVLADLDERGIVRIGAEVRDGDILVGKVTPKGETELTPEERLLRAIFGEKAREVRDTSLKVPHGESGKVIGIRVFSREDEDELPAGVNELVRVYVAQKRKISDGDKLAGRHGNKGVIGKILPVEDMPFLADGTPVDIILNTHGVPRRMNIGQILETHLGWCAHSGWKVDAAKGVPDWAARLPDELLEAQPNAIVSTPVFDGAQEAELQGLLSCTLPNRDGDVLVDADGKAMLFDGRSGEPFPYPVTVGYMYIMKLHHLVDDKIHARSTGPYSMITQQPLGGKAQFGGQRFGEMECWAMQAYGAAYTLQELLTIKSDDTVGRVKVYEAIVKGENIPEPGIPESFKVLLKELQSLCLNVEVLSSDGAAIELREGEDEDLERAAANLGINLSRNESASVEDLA
Sequence (P9WGI1 whole entry, further chain): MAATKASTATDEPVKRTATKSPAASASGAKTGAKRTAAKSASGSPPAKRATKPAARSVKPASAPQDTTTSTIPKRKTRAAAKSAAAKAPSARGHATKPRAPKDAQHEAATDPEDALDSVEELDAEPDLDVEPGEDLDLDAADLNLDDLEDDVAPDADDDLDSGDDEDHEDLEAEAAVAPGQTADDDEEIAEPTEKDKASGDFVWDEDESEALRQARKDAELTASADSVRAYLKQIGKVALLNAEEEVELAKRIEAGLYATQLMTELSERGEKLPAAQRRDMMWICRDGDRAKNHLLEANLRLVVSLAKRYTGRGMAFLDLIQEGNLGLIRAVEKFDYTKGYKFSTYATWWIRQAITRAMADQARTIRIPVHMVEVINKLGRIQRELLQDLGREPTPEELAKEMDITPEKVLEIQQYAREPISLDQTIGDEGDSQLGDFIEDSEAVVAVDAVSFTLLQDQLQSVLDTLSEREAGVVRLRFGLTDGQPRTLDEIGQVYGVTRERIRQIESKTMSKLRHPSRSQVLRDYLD
Sequence (P9WGY7 whole entry): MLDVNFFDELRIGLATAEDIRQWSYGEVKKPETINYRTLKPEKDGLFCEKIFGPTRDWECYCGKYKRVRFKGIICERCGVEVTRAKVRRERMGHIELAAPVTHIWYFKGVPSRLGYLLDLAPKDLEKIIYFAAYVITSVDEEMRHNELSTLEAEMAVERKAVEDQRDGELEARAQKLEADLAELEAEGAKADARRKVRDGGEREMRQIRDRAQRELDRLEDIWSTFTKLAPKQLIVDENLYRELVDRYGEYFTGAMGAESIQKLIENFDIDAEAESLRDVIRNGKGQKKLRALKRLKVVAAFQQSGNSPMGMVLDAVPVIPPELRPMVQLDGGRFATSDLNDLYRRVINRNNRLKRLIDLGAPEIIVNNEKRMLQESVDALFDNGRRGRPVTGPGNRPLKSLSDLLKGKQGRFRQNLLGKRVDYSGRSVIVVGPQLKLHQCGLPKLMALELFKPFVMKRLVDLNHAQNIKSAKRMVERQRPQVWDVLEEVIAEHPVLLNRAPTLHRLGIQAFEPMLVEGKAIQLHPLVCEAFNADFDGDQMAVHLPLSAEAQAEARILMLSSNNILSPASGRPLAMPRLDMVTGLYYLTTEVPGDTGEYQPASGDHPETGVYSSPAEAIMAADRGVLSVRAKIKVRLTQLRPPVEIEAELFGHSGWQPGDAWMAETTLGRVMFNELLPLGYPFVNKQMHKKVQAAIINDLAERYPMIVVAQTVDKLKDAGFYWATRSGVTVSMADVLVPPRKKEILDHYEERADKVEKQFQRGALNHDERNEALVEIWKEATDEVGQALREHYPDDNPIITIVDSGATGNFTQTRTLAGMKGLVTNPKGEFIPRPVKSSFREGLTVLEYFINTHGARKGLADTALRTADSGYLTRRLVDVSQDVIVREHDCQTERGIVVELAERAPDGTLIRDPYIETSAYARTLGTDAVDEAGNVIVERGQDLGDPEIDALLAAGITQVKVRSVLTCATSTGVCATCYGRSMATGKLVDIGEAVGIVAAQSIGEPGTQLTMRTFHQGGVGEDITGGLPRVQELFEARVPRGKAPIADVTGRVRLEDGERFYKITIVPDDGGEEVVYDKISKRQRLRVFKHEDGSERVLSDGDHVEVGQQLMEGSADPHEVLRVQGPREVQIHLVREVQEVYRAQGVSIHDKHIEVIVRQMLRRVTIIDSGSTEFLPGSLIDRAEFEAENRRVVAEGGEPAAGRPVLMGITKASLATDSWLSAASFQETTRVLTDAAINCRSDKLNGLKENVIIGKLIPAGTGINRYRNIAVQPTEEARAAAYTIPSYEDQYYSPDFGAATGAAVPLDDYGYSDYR
Protocol description: Run-off transcription assay with Mycobacterium tuberculosis RNA polymerase (radiochemical)
Type: biochemical
Condition notes: IC50 Mycobacterium tuberculosis RNA polymerase
Excerpt: […]
Give measured pIC50 for each item. Keep answers brief.
Give bare numbers, as −log10 of the molar value.

Worked examples, 3 molecules total:
molecule="O=C(N[C@H](Cc1ccccc1)C(=O)Nc1cc(Cl)ccc1N1CCNCC1)c1ccccc1F [IX-274a]" measure_name=pIC50 quantitative_result=7.77
molecule="Cc1ccc(Cl)cc1NC(=O)C(Cc1ccccc1)NC(=O)c1ccccc1 (stereo not drawn)" measure_name=pIC50 quantitative_result=6.04
molecule="Cc1ccccc1NC(=O)C(Cc1cccc(O)c1)NC(=O)c1ccccc1 (stereo not drawn)" measure_name=pIC50 quantitative_result=5.46

Your task in this section: give pIC50 for each listed record.
1. Cc1ccccc1NC(=O)C(Cc1ccccc1)NC(=O)c1ccccc1F (stereo not drawn)
2. Cc1ccccc1C(=O)NC(Cc1ccccc1)C(=O)Nc1cc(Cl)ccc1N1CCNCC1 (stereo not drawn)
3. Cc1ccc(Cl)cc1NC(=O)C(Cc1ccccc1)NC(=O)c1ccccc1F (stereo not drawn)

// result
1: 5.55; 2: 7.00; 3: 6.33

====

System: Vero E6 ATCC CRL1586 cells
Protocol description: Mammalian-cell cytotoxicity, minimal cytotoxic concentration (CellTiter96)
Format: cell-based
Give measured MCC mammalian cells Vero E6 ATCC CRL1586 for each item. Keep answers brief.

Worked examples, 2 molecules total:
molecule="Cc1ccccc1C(=O)NC(Cc1ccccc1)C(=O)Nc1cccc2[nH]ncc12 (stereo not drawn)" result=">100 µg/mL"
molecule="COc1ccccc1NC(=O)C(Cc1ccccc1)NC(=O)c1cccc2[nH]ccc12 (stereo not drawn)" result="59 µg/mL"

Your task in this section: give MCC mammalian cells Vero E6 ATCC CRL1586 for each listed record.
1. O=C(NC(Cc1ccccc1)C(=O)Nc1cccc2ncsc12)c1ccccc1 (stereo not drawn)
2. O=C(NC(Cc1ccccc1)C(=O)Nc1ccccc1OC(F)F)c1ccccc1Cl (stereo not drawn)
3. CC(=O)Oc1ccc(CC(NC(=O)c2ccccc2C)C(=O)Nc2ccccc2N2CCOCC2)cc1 (stereo not drawn)
4. Cc1ccccc1C(=O)NC(Cc1ccc(O)cc1)C(=O)Nc1ccccc1N1CCOCC1 (stereo not drawn)
5. Cn1ccc2cccc(NC(=O)C(Cc3ccccc3)NC(=O)c3ccccc3)c21 (stereo not drawn)
6. Cn1cnc2cccc(NC(=O)C(Cc3ccccc3)NC(=O)c3ccccc3)c21 (stereo not drawn)

// result
1: 80 µg/mL; 2: 5.6 µg/mL; 3: 84 µg/mL; 4: 81 µg/mL; 5: >100 µg/mL; 6: 96 µg/mL

// query What measured MCC mammalian cells Vero E6 ATCC CRL1586 goes with Cc1c(F)cccc1NC(=O)C(Cc1ccccc1)NC(=O)c1ccccc1 (stereo not drawn) ?
// result 19 µg/mL

====

Test system: Mycobacterium tuberculosis H37Rv
Protocol description: Microplate Alamar Blue assay (MABA) MIC, M. tuberculosis
Type: cell-based
Condition notes: read-out: MIC Mycobacterium tuberculosis H37Rv
Measure name: MIC (mg/L)
Numbers only, in mg/L.

molecule="Cc1ccccc1C(=O)NC(Cc1ccccc1)C(=O)Nc1cccc2c1cnn2C (stereo not drawn)" system_under_test="Mycobacterium tuberculosis H37Rv" unit_of_measure=mg/L quantitative_result=12.5
molecule="Cc1c(NC(=O)C(Cc2ccccc2)NC(=O)c2ccccc2)cccc1N1CCCC1 (stereo not drawn)" system_under_test="Mycobacterium tuberculosis H37Rv" unit_of_measure=mg/L quantitative_result=6.25
molecule="Cc1ccccc1NC(=O)C(Cc1ccc(O)cc1)NC(=O)c1ccccc1C (stereo not drawn)" system_under_test="Mycobacterium tuberculosis H37Rv" unit_of_measure=mg/L quantitative_result=50
molecule="Cc1ccccc1C(=O)NC(Cc1ccccc1)C(=O)Nc1cccc2cc[nH]c12 (stereo not drawn)" system_under_test="Mycobacterium tuberculosis H37Rv" unit_of_measure=mg/L quantitative_result=6.25

Shift focus to the following entry.
// query What measured MIC goes with Cc1ccccc1C(=O)NC(Cc1ccccc1)C(=O)Nc1cc(F)ccc1N1CCOCC1 (stereo not drawn) ?
// result 0.39

====

Give measured MCC mammalian cells Vero E6 ATCC CRL1586 for each item. Keep answers brief.
System: Vero E6 ATCC CRL1586 cells
Protocol description: Mammalian-cell cytotoxicity, minimal cytotoxic concentration (CellTiter96)
Format: cell-based

compound="O=C(NC(Cc1ccccc1)C(=O)Nc1cccc2cc[nH]c12)c1ccccc1 (stereo not drawn) [II-28]" measure_name="MCC mammalian cells Vero E6 ATCC CRL1586" result="13 µg/mL"
compound="O=C(NC(Cc1ccc(O)cc1)C(=O)Nc1cccc2c1OCCO2)c1cccs1 (stereo not drawn) [IX-34]" measure_name="MCC mammalian cells Vero E6 ATCC CRL1586" result="85 µg/mL"
compound="O=C(NC(Cc1ccccc1)C(=O)Nc1ccccc1N1CCNCC1)c1ccccc1F (stereo not drawn) [IX-211]" measure_name="MCC mammalian cells Vero E6 ATCC CRL1586" result="18 µg/mL"
compound="O=C(NC(Cc1ccccc1)C(=O)Nc1cccc2[nH]ccc12)c1ccccc1 (stereo not drawn) [II-27]" measure_name="MCC mammalian cells Vero E6 ATCC CRL1586" result="41 µg/mL"
compound="Cc1ccccc1NC(=O)C(Cc1ccc(N2CCOCC2)cc1)NC(=O)c1ccccc1 (stereo not drawn) [I-188]" measure_name="MCC mammalian cells Vero E6 ATCC CRL1586" result="35 µg/mL"
compound="COc1cccc(NC(=O)C(Cc2ccccc2)NC(=O)c2cccs2)c1C (stereo not drawn) [IX-107]" measure_name="MCC mammalian cells Vero E6 ATCC CRL1586" result=">100 µg/mL"
compound="O=C(NC(Cc1ccccc1)C(=O)Nc1ccccc1N1CCSCC1)c1ccccc1 (stereo not drawn) [IX-149]" measure_name="MCC mammalian cells Vero E6 ATCC CRL1586" result=">100 µg/mL"
compound="O=C(NC(Cc1ccccc1)C(=O)Nc1cccc2ccncc12)c1ccccc1 (stereo not drawn) [IX-15]" measure_name="MCC mammalian cells Vero E6 ATCC CRL1586" result="85 µg/mL"

Shift focus to the following entry.
// query What measured MCC mammalian cells Vero E6 ATCC CRL1586 goes with O=C(NC(Cc1ccccc1)C(=O)Nc1cccc2c1OCO2)c1ccccc1F (stereo not drawn) [IX-99] ?
// result >100 µg/mL
